Test system: UACC-257 melanoma
Test: NCI tumour cell line growth inhibition, 48 h
Result Type: TGI

>  <Compound>
COc1ccc(C(O)c2cc(OC)c(OC)c(OC)c2)cc1 (stereo not given)

>  <Result>
> 100 µM

$$$$
>  <Compound>
CC(C(=O)O)c1ccc(-n2nnc3c(=O)[nH][nH]c(=O)c32)cc1 (stereo not given)

>  <Result>
> 100 µM

$$$$
>  <Compound>
CC1=C(C(=O)N[C@@H](CC(C)C)C(=O)O)N2C(=O)[C@@H](NC(=O)[C@@H](N)Cc3ccccc3)[C@H]2SC1

>  <Result>
> 100 µM

$$$$
>  <Compound>
N#Cc1nc(C(O)c2ccccc2)oc1N (stereo not given)

>  <Result>
> 100 µM

$$$$
>  <Compound>
CC(=O)NNc1nc(C)c(C(=O)/C=C/c2cccc([N+](=O)[O-])c2)s1

>  <Result>
> 100 µM

$$$$

====

Tested on: HCT-116 colon
Test: NCI tumour cell line growth inhibition, 48 h
Where a SMILES comes first, the peptide text is derived from it. [ ]: non-standard residue; d: D form. Ac5c = NC1(C(=O)O)CCCC1
Result Type: TGI

>  <Compound>
O=[N+]([O-])c1ccc(-c2noc(-c3ccccc3)c2C2=NCCN2)cc1

>  <Result>
> 100 µM

$$$$
>  <Compound>
O=c1c2ccc(Cl)cc2oc2c(CNc3ccc(S(=O)(=O)Nc4nccs4)cc3)cccc12

>  <Result>
> 100 µM

$$$$
>  <Compound>
CCOC(=O)c1cn2c(n1)sc1cc(C)c(C)cc12

>  <Result>
33.7 µM

$$$$
>  <Compound>
COC(=O)C1(NC(=O)C(C)NC(=O)C(CCCCN)NC(=O)C(CC(C)C)NC(C)=O)CCCC1 (centres undefined) (Ac-LKA[Ac5c]-OMe; configuration not given here)

>  <Result>
> 100 µM

$$$$
>  <Compound>
O=C(Nc1ccccc1)c1cc(S(=O)(=O)n2cc[nH]c2=O)c(S)cc1Cl

>  <Result>
> 100 µM

$$$$
>  <Compound>
O=C(N/N=C(\CN1CCN(c2cc3[nH]cc(C(=O)O)c(=O)c3cc2F)CC1)c1ccc(Cl)cc1)c1ccncc1

>  <Result>
> 100 µM

$$$$
>  <Compound>
c1ccc2c(c1)CCN2CCN1CCc2ccccc21

>  <Result>
> 10 µM

$$$$
>  <Compound>
CC(=O)OCC1(C)C(OC(C)=O)CCC2(C)C(CC(OC(C)=O)C3=CCOC3=O)C(O)(CO)CCC12 (centres undefined)

>  <Result>
> 100 µM

$$$$
>  <Compound>
O=CN/N=C/c1ccc(Cl)c([N+](=O)[O-])c1

>  <Result>
> 100 µM

$$$$

====

Test system: HL-60(TB) leukemia
Test: NCI tumour cell line growth inhibition, 48 h

>  <Compound>
CC1(C)CC[C@]2(C(N)=O)CC[C@]3(C)C(=CC[C@@H]4[C@@]5(C)C/C(=C/c6cccnc6)C(=O)C(C)(C)[C@@H]5CC[C@]43C)[C@@H]2C1

>  <GI50>
2040 nM

$$$$
>  <Compound>
O=c1ccc2nc(C(F)(F)F)nn(-c3ccccc3)c-2c1

>  <GI50>
1210 nM

$$$$
>  <Compound>
Cc1ccc(Cl)cc1-c1nc(N)nc(Nc2ccc(Br)cc2)n1

>  <GI50>
30.5 nM

$$$$
>  <Compound>
CCCN(CCC)c1ccc(CO)c(Cl)c1

>  <GI50>
19500 nM

$$$$
>  <Compound>
CC(O)CCc1ccc(Oc2c3ccccc3nc3occc23)cc1 (centres undefined)

>  <GI50>
1780 nM

$$$$
>  <Compound>
O=C(N/N=C/c1c(Cl)cccc1Cl)c1cccnc1Nc1cccc(C(F)(F)F)c1

>  <GI50>
3150 nM

$$$$
>  <Compound>
Nn1c2c(c3ccccc3c1=O)C(=O)c1ccccc1-2

>  <GI50>
> 50000 nM

$$$$
>  <Compound>
O=[N+]([O-])c1ccc2c(c1)C(=NO)c1cc([N+](=O)[O-])ccc1-2

>  <GI50>
4190 nM

$$$$
>  <Compound>
C=C1C(=O)O[C@H]2[C@H]1CC/C(COC(=O)/C=C\C(=O)NCc1ccc(Cn3c(=O)sn(CCCI)c3=O)cc1)=C\CC[C@@]1(C)O[C@@H]21

>  <GI50>
575 nM

$$$$

====

The entries below are paired with their reported TGI.
Tested on: HS 578T breast
Assay: NCI tumour cell line growth inhibition, 48 h
Where a SMILES comes first, the peptide text is derived from it. [ ]: non-standard residue; d: D form. Ac5c = NC1(C(=O)O)CCCC1
Result Type: TGI

>  <Compound>
CN(C)CCCn1c2c(c3ccc(-c4ccn[nH]4)cc3c1=O)C(=O)c1ccccc1-2

>  <Result>
27.1 µM

$$$$
>  <Compound>
Cc1ccc(Cc2nc(=S)[nH][nH]2)cc1

>  <Result>
> 100 µM

$$$$
>  <Compound>
O=C(Nc1ccc(Cl)cc1)c1cc2c(cc1Cl)Sc1nccn1S2(=O)=O

>  <Result>
97.4 µM

$$$$
>  <Compound>
O=C1CC2(CCC(O)(c3ccccc3)C(C(=O)c3ccccc3)C2)C(=O)c2ccccc2N1 (stereo not given)

>  <Result>
> 100 µM

$$$$
>  <Compound>
C/C(=N/OC(=O)c1cccc2c(=O)c3ccccc3[nH]c12)[C@H]1CC[C@H]2[C@@H]3CCC4=C/C(=N/OC(=O)c5cccc6c(=O)c7ccccc7[nH]c56)CC[C@]4(C)[C@H]3CC[C@]12C

>  <Result>
> 100 µM

$$$$
>  <Compound>
O=C(Nc1ccc2ncccc2c1)c1cc2c(cc1Cl)Sc1nccn1S2(=O)=O

>  <Result>
> 100 µM

$$$$
>  <Compound>
ClC1=C(Cl)C(Cl)(Cl)SS1

>  <Result>
> 10 µM

$$$$
>  <Compound>
CC1=NN(C(=O)c2ccc(Cl)cc2)C(=O)C1N=Nc1ccc(S(=O)(=O)Nc2ncccn2)cc1 (stereo not given)

>  <Result>
> 100 µM

$$$$
>  <Compound>
c1ccc([Si](OCCN2CC2)(c2ccccc2)c2ccccc2)cc1

>  <Result>
24.9 µM

$$$$
>  <Compound>
CCOC(=O)/C=C1/SC(N2CCCCC2)C(=O)N1CC (stereo not given)

>  <Result>
> 100 µM

$$$$
>  <Compound>
Cc1ccc(S(=O)(=O)NC(C(=O)O)C(C)C)cc1 (stereo not given)

>  <Result>
> 100 µM

$$$$
>  <Compound>
CC(=O)OC1Oc2ccccc2-c2oc(=O)c(-c3ccc(F)cc3)cc21 (stereo not given)

>  <Result>
74.7 µM

$$$$
>  <Compound>
CC1(C)CN=C(Nc2ccc(F)cc2)S1

>  <Result>
> 100 µM

$$$$
>  <Compound>
CCCCOC(=O)C(=O)C(CC(CC)C(=O)c1ccccc1)C(=O)C=C(C)C (stereo not given)

>  <Result>
> 100 µM

$$$$
>  <Compound>
COC(=O)c1cc(C)ccc1/C=C1\Cc2cccc(C)c2C1=O

>  <Result>
> 100 µM

$$$$
>  <Compound>
CC1=NN(C(=O)CC(=O)Nc2ccccc2)C(=O)C1N=Nc1ccc(C(=O)O)cc1 (stereo not given)

>  <Result>
> 100 µM

$$$$
>  <Compound>
CCCNC(=S)N=Nc1c(O)[nH]c2ccccc12

>  <Result>
> 100 µM

$$$$
>  <Compound>
O=C(CCc1ccc(O)c(O)c1)NCCc1cc(O)cc(OCc2ccccc2)c1

>  <Result>
> 100 µM

$$$$
>  <Compound>
COC(=O)C1(NC(=O)C(C)NC(=O)C(CCCCN)NC(=O)C(CC(C)C)NC(C)=O)CCCC1 (stereo not given) (Ac-LKA[Ac5c]-OMe; configuration not given here)

>  <Result>
> 100 µM

$$$$
>  <Compound>
Cc1nc2c(o1)C(=O)c1ccccc1C2=Nc1ccccc1

>  <Result>
5.38 µM

$$$$

====

Tested on: SK-MEL-2 melanoma
Experiment: NCI tumour cell line growth inhibition, 48 h
TGI overview

>  <Compound>
CCCCCCCCCCC(O)CCCCCCC(=O)O (stereo unspecified)

>  <TGI>
> 100 µM

$$$$
>  <Compound>
OCc1ccc(N(Cc2ccc(F)cc2)CC2CC2)cc1Cl

>  <TGI>
19 µM

$$$$
>  <Compound>
O=Cc1cn(Cc2ccc(Cl)cc2)c2ccccc12

>  <TGI>
66.1 µM

$$$$
>  <Compound>
CC1(C)C2CCC13C(=O)C1OC3(C2)C2C(=O)N(c3ccccc3)C(=O)C12 (stereo unspecified)

>  <TGI>
> 100 µM

$$$$
>  <Compound>
CC12OC3(C)OC(=O)C(c4ccccc4)(O1)C3(C)O2 (stereo unspecified)

>  <TGI>
> 100 µM

$$$$
>  <Compound>
COC(=O)C1=C(C)C(=O)[C@H]2C(C(=O)OC)CCCC[C@@H]12 (stereo partly specified)

>  <TGI>
> 100 µM

$$$$
>  <Compound>
C=C1C(=O)O[C@H]2[C@H]1CC/C(COC(=O)CCSSCCC(=O)OC/C1=C/CC[C@@]3(C)O[C@H]3[C@H]3OC(=O)C(=C)[C@@H]3CC1)=C\CC[C@@]1(C)O[C@@H]21

>  <TGI>
4.16 µM

$$$$
>  <Compound>
CC(=O)NC(CC(C)C)C(=O)NC(CC(C)C)C(=O)NC(C=O)CCCN=C(N)N (stereo unspecified)

>  <TGI>
> 100 µM

$$$$
>  <Compound>
CN1CCN(CC(=O)N2c3ccccc3Sc3cc4ccccc4cc32)CC1

>  <TGI>
31.9 µM

$$$$
>  <Compound>
Cc1ccccc1N(CC(=O)O)S(=O)(=O)c1ccccc1

>  <TGI>
> 100 µM

$$$$
>  <Compound>
S=C(Nc1ccccc1)Nc1ccccc1SC(/C=C/NNC1=NC(c2ccccc2)C(c2ccccc2)=NN1)c1ccccc1 (stereo unspecified)

>  <TGI>
> 100 µM

$$$$
>  <Compound>
COc1cc2c[n+](C)c3c4cc(OC)c(OC)cc4c(OCc4ccccc4)cc3c2cc1OC

>  <TGI>
3.37 µM

$$$$
>  <Compound>
CC1=C(c2cc(C(=O)Nc3cc(C)ccc3C)nc(N)n2)Sc2ccccc2N1

>  <TGI>
> 100 µM

$$$$
>  <Compound>
CSc1ncnc2c1cnn2Cc1cn(CCCCO)nn1

>  <TGI>
> 100 µM

$$$$
>  <Compound>
O=C(Nc1cccc(Cl)c1)Nc1nccs1

>  <TGI>
52.1 µM

$$$$
>  <Compound>
C=C1C(=O)O[C@H]2[C@H]1CC/C(COC(=O)/C=C\C(=O)NCc1ccc(Cn3c(=O)sn(CCCI)c3=O)cc1)=C\CC[C@@]1(C)O[C@@H]21

>  <TGI>
1.96 µM

$$$$
>  <Compound>
Cc1cc(Nc2ccc3c(c2)OCO3)c2cc3c(cc2n1)OCO3

>  <TGI>
21.5 µM

$$$$
>  <Compound>
Cc1nc2c(o1)C(=O)c1ccccc1C2=Nc1ccccc1

>  <TGI>
2.95 µM

$$$$
>  <Compound>
CC1=NN(C(=O)c2ccc(Cl)cc2)C(=O)C1N=Nc1ccc(S(=O)(=O)Nc2ncccn2)cc1 (stereo unspecified)

>  <TGI>
> 100 µM

$$$$
>  <Compound>
C=C1C(NC)CCC23CC24CCC2(C)C(C(C)=O)C(O)CC2(C)C4CCC13 (stereo unspecified)

>  <TGI>
> 100 µM

$$$$
>  <Compound>
CCOC(=O)/C(=C\NCc1ccc2c(c1)OCO2)c1nc2ccccc2[nH]1

>  <TGI>
> 100 µM

$$$$
>  <Compound>
CC(C)CSCC1OC(n2cnc3c(N)nccc32)C(O)C1O (stereo unspecified)

>  <TGI>
> 100 µM

$$$$
>  <Compound>
NCCN.O=C([O-])C(=O)[O-].O=C([O-])C(=O)[O-].[Co+3].[K+]

>  <TGI>
> 100 µM

$$$$
>  <Compound>
O=C1O/C(=C\c2ccc(O)c(Br)c2)C(c2ccc(O)c(Cl)c2)=C1Br

>  <TGI>
39.2 µM

$$$$
>  <Compound>
O=C(O)CSc1ccc(N=C=S)cc1

>  <TGI>
> 100 µM

$$$$
>  <Compound>
c1ccc2c3ccn4ccc5c6ccccc6[nH]c5c4c-3nc2c1

>  <TGI>
3.13 µM

$$$$
>  <Compound>
COc1ccc(Oc2ccc3cc4c(cc3c2O)OCO4)c2cc(C)oc12

>  <TGI>
47.4 µM

$$$$
>  <Compound>
C=CCc1cccc2cc(C(N)=O)c(=N)oc12

>  <TGI>
> 100 µM

$$$$
>  <Compound>
COc1cccc(N=Cc2cc(OC)c(OC)c(OC)c2)c1

>  <TGI>
> 100 µM

$$$$
>  <Compound>
O=S(=O)(Nc1ccc(Cl)cc1)c1ccc(-c2cnc(C3CC3)o2)cc1

>  <TGI>
21.2 µM

$$$$
>  <Compound>
Nc1ccc(C(=O)NN2C(=O)[C@H](Cl)C2c2ccc(Cl)cc2)cc1 (stereo partly specified)

>  <TGI>
4.37 µM

$$$$
>  <Compound>
Cc1nc2sccn2c1C(=O)N/N=C1\SCC(=O)N1C

>  <TGI>
> 100 µM

$$$$
>  <Compound>
CN(/N=C(\C(=O)O)c1ccccc1)C1=NCCN1

>  <TGI>
> 100 µM

$$$$
>  <Compound>
CCN(CC)CCCNc1[nH]ncc2cc3c(nc4ccccc43)c(C)c12

>  <TGI>
> 100 µM

$$$$
>  <Compound>
CC(=O)OCCOCn1c2c(c(=O)[nH]c1=O)CCC2

>  <TGI>
> 100 µM

$$$$
>  <Compound>
COc1cc2ccc1NC(=O)N1CCN(CC1)C(=O)Nc1ccc(cc1OC)-c1ccc(c(OC)c1)NC(=O)N1CCN(CC1)C(=O)Nc1ccc-2cc1OC

>  <TGI>
> 100 µM

$$$$
>  <Compound>
Cc1cc(Cc2cc(Cc3cc(C)cc(C(C)(C)C)c3O)c(C)cc2C)c(O)c(C(C)(C)C)c1

>  <TGI>
> 100 µM

$$$$
>  <Compound>
CO/C(=N\N=Cc1ccccc1)c1ccncc1

>  <TGI>
> 100 µM

$$$$
>  <Compound>
NC1=NS(=O)(=O)Nc2nc(-c3ccc(Cl)cc3)[nH]c21

>  <TGI>
> 100 µM

$$$$
>  <Compound>
COc1cc(/C=C2\N=C(c3ccccc3)N(c3nc4ccc(Sc5ccccc5)cc4[nH]3)C2=O)ccc1O

>  <TGI>
30.6 µM

$$$$
>  <Compound>
O=C(CCCCN1CCOCC1)Nc1ccc(Cn2nnc3c2C(=O)c2nnn(Cc4ccc(NC(=O)CCCCN5CCOCC5)cc4)c2C3=O)cc1

>  <TGI>
1.22 µM

$$$$
